molecular target: UniProt P37288; format: cell membranes, Membrane; details: hek293
Sequence (P37288 whole entry): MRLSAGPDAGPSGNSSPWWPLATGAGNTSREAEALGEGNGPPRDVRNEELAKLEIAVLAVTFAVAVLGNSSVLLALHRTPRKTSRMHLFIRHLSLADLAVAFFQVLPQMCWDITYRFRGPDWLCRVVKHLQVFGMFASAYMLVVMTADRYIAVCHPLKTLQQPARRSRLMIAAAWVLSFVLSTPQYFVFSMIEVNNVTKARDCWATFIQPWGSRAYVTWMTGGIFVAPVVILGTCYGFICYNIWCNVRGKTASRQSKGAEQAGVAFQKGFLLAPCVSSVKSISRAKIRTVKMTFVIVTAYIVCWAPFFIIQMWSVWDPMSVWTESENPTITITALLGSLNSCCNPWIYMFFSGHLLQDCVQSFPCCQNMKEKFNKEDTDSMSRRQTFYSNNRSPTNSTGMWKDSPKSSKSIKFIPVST
*1 amine or outer side, *2 acyl side, *3 side chain or, on linkers, in order; H or OH if unused. Where a SMILES comes first, the peptide text is derived from it. Bridges are numbered along the chain shown (N, C = ends). Roman numbers before positions name the chains, in order. [ ]: non-standard residue; d: D form. Actinocin(1to9) = Cc1c2oc3c(C)ccc(C(=O)[*:2])c3nc-2c(C(=O)[*:1])c(N)c1=O; NMeV = CN[C@H](C(=O)O)C(C)C; Sar = CNCC(=O)O

Compound	Subject of test	IC50
O=C1CC[C@@H](N2C(=O)c3ccccc3C2=O)C(=O)N1	UniProt P37288	Not Active
COc1c(C)c2c(c(O)c1C/C=C(\C)CCC(=O)O)C(=O)OC2	UniProt P37288	Not Active
Clc1cccc(Cl)c1NC1=NCCN1	UniProt P37288	Not Active
Nc1nc2ccc(OC(F)(F)F)cc2s1	UniProt P37288	Not Active
CN(C)C(=O)Oc1cc(OC(=O)N(C)C)cc(C(O)CNC(C)(C)C)c1 (configuration not stated)	UniProt P37288	Not Active
N=C(N)NCCN1CCCCCCC1	UniProt P37288	Not Active
Cc1c2oc3c(C)ccc(C(=O)N[C@@H]4C(=O)N[C@H](C(C)C)C(=O)N5CCC[C@H]5C(=O)N(C)CC(=O)N(C)[C@@H](C(C)C)C(=O)O[C@@H]4C)c3nc-2c(C(=O)N[C@@H]2C(=O)N[C@H](C(C)C)C(=O)N3CCC[C@H]3C(=O)N(C)CC(=O)N(C)[C@@H](C(C)C)C(=O)O[C@@H]2C)c(N)c1=O [DACTINOMYCIN] (I: T[dV]P[Sar][NMeV] / II: T[dV]P[Sar][NMeV]; ester I:1-I:C, II:1-II:C; linker I:N-II:N via Actinocin(1to9))	UniProt P37288	Not Active
CCCN1C[C@H](CSC)C[C@@H]2c3cccc4[nH]cc(c34)C[C@H]21 [PERGOLIDE]	UniProt P37288	Not Active
Nc1nc2c(ncn2COCCO)c(=O)[nH]1	UniProt P37288	Not Active
Cc1c(O)c(=O)ccn1C	UniProt P37288	Not Active
CNNCc1ccc(C(=O)NC(C)C)cc1	UniProt P37288	Not Active
Nc1nc(N)nc(-c2cc(Cl)ccc2Cl)n1.O=C(O)/C=C\C(=O)O [IRSOGLADINE MALEATE]	UniProt P37288	Not Active
Cc1cccc(N(C)C(=S)Oc2ccc3ccccc3c2)c1 [TOLNAFTATE]	UniProt P37288	Not Active
Nc1nc2nc[nH]c2c(=S)[nH]1	UniProt P37288	Not Active
C[C@]12CC[C@@H]3c4ccc(O)cc4CC[C@H]3[C@@H]1CCC2=O	UniProt P37288	Not Active
Cc1noc(NS(=O)(=O)c2ccc(N)cc2)c1C	UniProt P37288	Not Active
CCOC(=O)N1CCC(=C2c3ccc(Cl)cc3CCc3cccnc32)CC1	UniProt P37288	Not Active

---

experiment: DRUGMATRIX: Nicotinic Acetylcholine radioligand binding (ligand: [125I] Epibatidine); type: cell membranes, Membrane; details: imr-32; Not Active = under 50% inhibition at 10 µM

Compound	Ki
Nc1nc(N)nc(-c2cc(Cl)ccc2Cl)n1.O=C(O)/C=C\C(=O)O [IRSOGLADINE MALEATE]	Not Active
CCOC(=O)N1CCC(=C2c3ccc(Cl)cc3CCc3cccnc32)CC1 [LORATADINE]	Not Active
C1CCC(C(CC2CCCCN2)C2CCCCC2)CC1 (stereo not drawn) [PERHEXILINE]	Not Active
OCCN(CCO)c1nc(N2CCCCC2)c2nc(N(CCO)CCO)nc(N3CCCCC3)c2n1 [DIPYRIDAMOLE]	Not Active
CN(C)c1nc(N(C)C)nc(N(C)C)n1 [ALTRETAMINE]	Not Active
COc1cc2c3cc1Oc1cc(ccc1O)C[C@@H]1c4c(cc(OC)c(O)c4Oc4ccc(cc4)C[C@@H]3N(C)CC2)CC[N+]1(C)C.[Cl-]	Not Active
Nc1nc2c(ncn2COCCO)c(=O)[nH]1 [ACYCLOVIR]	Not Active
C[C@H](CS)C(=O)N1CCC[C@H]1C(=O)O [CAPTOPRIL]	Not Active
Nc1c2c(nc3ccccc13)CCCC2 [TACRINE]	Not Active
COc1ccc(C[C@H]2NC[C@H](O)[C@H]2OC(C)=O)cc1 [ANISOMYCIN]	Not Active
O=C(CCCN1CC=C(n2c(=O)[nH]c3ccccc32)CC1)c1ccc(F)cc1 [DROPERIDOL]	Not Active
O=c1[nH]c(=O)n([C@H]2C[C@H](O)[C@@H](CO)O2)cc1I [IDOXURIDINE]	Not Active
C=CCC1(C(C)CCC)C(=O)NC(=O)NC1=O (stereo not drawn) [SECOBARBITAL]	Not Active
CC(=O)O[C@@]12CO[C@@H]1C[C@H](O)[C@@]1(C)C(=O)[C@H](O)C3=C(C)[C@@H](OC(=O)[C@H](O)[C@@H](NC(=O)OC(C)(C)C)c4ccccc4)C[C@@](O)([C@@H](OC(=O)c4ccccc4)[C@H]21)C3(C)C.O.O.O [DOCETAXEL]	Not Active
N[C@@H](Cc1ccc(N(CCCl)CCCl)cc1)C(=O)O	Not Active
CN(C)CCCN1c2ccccc2Sc2ccc(Cl)cc21 [CHLORPROMAZINE]	Not Active
C[C@](N)(Cc1ccc(O)c(O)c1)C(=O)O [METHYLDOPA]	Not Active
O=C1CC[C@@H](N2C(=O)c3ccccc3C2=O)C(=O)N1	Not Active
Cc1ccc2cc3c(ccc4ccccc43)c3c2c1CC3 [3-METHYLCHOLANTHRENE]	Not Active
c1ccc([C@H]2CN3CCSC3=N2)cc1 [LEVAMISOLE]	Not Active
NS(=O)(=O)c1cc2c(cc1Cl)NC(C(Cl)Cl)NS2(=O)=O (stereo not drawn) [TRICHLORMETHIAZIDE]	Not Active
CNNCc1ccc(C(=O)NC(C)C)cc1 [PROCARBAZINE]	Not Active
C[C@]12CCC(=O)C=C1CC[C@@H]1[C@@H]2CC[C@@]2(C)[C@H]1CC[C@]2(C)O [METHYLTESTOSTERONE]	Not Active
